target: T1, hen egg lysozyme (Gallus gallus (hen egg white), UniProt P00698); test: SPR; Biacore T200; lysozyme immobilised on Sensor Chip CM5 by amine coupling (200 RU); VHH injected 300 s, dissociation 600 s in PBST (PBS, 0.005% Tween 20); 1:1 binding model; duplicate; details: both partners purified
T1 construct: hen egg lysozyme (HEL), the antigen of D3-L11; also in PDB 6JB8; The supplier is named for the ELISA only; also called HEL; antigen lysozyme; source: bought: Sigma-Aldrich, Cat No. L6876
T1 sequence (P00698 19-147): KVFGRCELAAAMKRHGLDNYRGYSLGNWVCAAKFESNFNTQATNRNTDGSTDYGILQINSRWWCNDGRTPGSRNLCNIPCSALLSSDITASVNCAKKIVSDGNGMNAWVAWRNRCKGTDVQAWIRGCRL
Measured pKd of individual entries
Note: pKd values are expressed as the negative base-10 logarithm of concentration in M.

binder	pKd
D3-L11 A79C (VHH, as the VHH chain of Sm1 (D3-L11 wild type, PDB 6JB8) with A79C; SAG tripeptide linker before the C-terminal 6xHis tag; source: ExpiCHO, transient transfection, purified from supernatant (His Mag Sepharose excel); not shown: His6, C-terminal, kept) VHH: DVQLVESGGGSVQAGGSLRLSCAASGSTDSIEYMTWFRQAPGKAREGVAALYTHTGNTYYTDSVKGRFTISQDKAKNMCYLRMDSVKSEDTAIYTCGATRKYVPVRFALDQSSYDYWGQGTQVTVSS	11.43
D3-L11 A79W (VHH, as the VHH chain of Sm1 (D3-L11 wild type, PDB 6JB8) with A79W; SAG tripeptide linker before the C-terminal 6xHis tag; source: ExpiCHO, transient transfection, purified from supernatant (His Mag Sepharose excel); not shown: His6, C-terminal, kept) VHH: DVQLVESGGGSVQAGGSLRLSCAASGSTDSIEYMTWFRQAPGKAREGVAALYTHTGNTYYTDSVKGRFTISQDKAKNMWYLRMDSVKSEDTAIYTCGATRKYVPVRFALDQSSYDYWGQGTQVTVSS	10.83
D3-L11 A79Y (VHH, as the VHH chain of Sm1 (D3-L11 wild type, PDB 6JB8) with A79Y; SAG tripeptide linker before the C-terminal 6xHis tag; source: ExpiCHO, transient transfection, purified from supernatant (His Mag Sepharose excel); not shown: His6, C-terminal, kept) VHH: DVQLVESGGGSVQAGGSLRLSCAASGSTDSIEYMTWFRQAPGKAREGVAALYTHTGNTYYTDSVKGRFTISQDKAKNMYYLRMDSVKSEDTAIYTCGATRKYVPVRFALDQSSYDYWGQGTQVTVSS	11.25

Turning now to a further record.
The reported value for D3-L11 A79H (VHH, as the VHH chain of Sm1 (D3-L11 wild type, PDB 6JB8) with A79H; SAG tripeptide linker before the C-terminal 6xHis tag; source: ExpiCHO, transient transfection, purified from supernatant (His Mag Sepharose excel); not shown: His6, C-terminal, kept) VHH: DVQLVESGGGSVQAGGSLRLSCAASGSTDSIEYMTWFRQAPGKAREGVAALYTHTGNTYYTDSVKGRFTISQDKAKNMHYLRMDSVKSEDTAIYTCGATRKYVPVRFALDQSSYDYWGQGTQVTVSS in terms of pKd is 10.64

Data provenance: paper PMC10039853
